For each record, write down the corresponding Motility Data, mean number of cells that migrate per well, 0.5% FCS.
- Tested on: 231-BR cells
- Assay info: 48-well Boyden chamber chemotaxis (motility) assay
- Format: cell-based, human
- Measurement parameters: 0.5% FCS chemoattractant; 24 hours drug treatment, 4 hours migration; SAHA 5 μM, depsipeptide 10 ng/mL, VPA 10 mM, TSA 100 ng/mL; ± standard deviation
Lab note: record the figure alone, no unit after it.

Challenge: Form: Entry = "CC(/C=C/C(=O)NO)=C\[C@@H](C)C(=O)c1ccc(N(C)C)cc1" | System = 231-BR cells | Motility Data, mean number of cells that migrate per well, 0.5% FCS = ____
Response given: 785

Challenge: Given the entry "CCCC(CCC)C(=O)O" , what Motility Data, mean number of cells that migrate per well, 0.5% FCS was observed with 231-BR cells?
Response given: 755

Challenge: What reported Motility Data, mean number of cells that migrate per well, 0.5% FCS corresponds to C/C=C1\NC(=O)[C@H]2CSSCC/C=C/[C@H](CC(=O)N[C@H](C(C)C)C(=O)N2)OC(=O)[C@H](C(C)C)NC1=O [Depsipeptide] on 231-BR cells?
Response given: 678

Challenge: Notebook: pull reported Motility Data, mean number of cells that migrate per well, 0.5% FCS for 231-BR cells, entry O=C(CCCCCCC(=O)Nc1ccccc1)NO [SAHA, N-Hydroxy-N′-phenyloctanediamide]
Response given: 756
